// provenance: PubChem BioAssay AID540275

target: Transient receptor potential cation channel subfamily V member 1 (Homo sapiens) (UniProt Q8NER1); assay: HTS Assay for Compounds that Act as Agonists of the Vanilloid Receptor 1; conditions: TRPV1-expressing cells, Fluo-8 calcium influx, agonist mode; at 8.33 µM; hits give high values
Sequence (Q8NER1 whole entry, looked up): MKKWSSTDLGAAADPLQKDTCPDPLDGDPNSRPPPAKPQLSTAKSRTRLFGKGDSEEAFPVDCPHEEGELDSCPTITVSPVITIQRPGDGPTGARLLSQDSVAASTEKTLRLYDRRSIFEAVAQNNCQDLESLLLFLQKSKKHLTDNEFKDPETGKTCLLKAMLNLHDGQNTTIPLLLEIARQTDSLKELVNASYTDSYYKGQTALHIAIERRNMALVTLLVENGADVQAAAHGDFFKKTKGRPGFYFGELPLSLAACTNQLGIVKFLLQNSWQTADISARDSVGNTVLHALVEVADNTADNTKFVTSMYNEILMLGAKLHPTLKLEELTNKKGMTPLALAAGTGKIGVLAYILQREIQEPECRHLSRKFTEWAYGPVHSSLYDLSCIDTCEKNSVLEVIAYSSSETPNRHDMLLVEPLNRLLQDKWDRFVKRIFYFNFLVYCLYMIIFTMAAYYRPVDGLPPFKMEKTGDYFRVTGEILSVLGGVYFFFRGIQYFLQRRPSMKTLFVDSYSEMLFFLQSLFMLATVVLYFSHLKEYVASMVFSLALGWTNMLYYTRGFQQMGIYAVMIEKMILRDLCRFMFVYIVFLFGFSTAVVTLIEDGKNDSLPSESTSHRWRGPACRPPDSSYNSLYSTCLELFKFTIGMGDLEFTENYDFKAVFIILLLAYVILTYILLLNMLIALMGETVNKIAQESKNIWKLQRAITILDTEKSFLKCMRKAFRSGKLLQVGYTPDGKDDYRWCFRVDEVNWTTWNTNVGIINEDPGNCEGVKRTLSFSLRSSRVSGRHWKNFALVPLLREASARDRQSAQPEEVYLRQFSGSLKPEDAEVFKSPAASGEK
Out of some 320,000 compounds screened, about 620 (0.19%) were called active. Another 6% or so got no clear call; they are omitted. The entries come from a sample that favours actives as a whole.

{"columns": ["compound", "activation / %"],
 "data": [
  ["CCOC(=O)[C@@H]1[C@H]2COc3cc(OC)ccc3[C@@H]2N2C(=O)N(c3cccc(C)c3)C(=O)[C@@]12C", 2.6],
  ["CCN(CC)S(=O)(=O)c1ccc(N2CCOCC2)c(NC(=O)C(C)Oc2ccc(F)cc2)c1 (stereo not drawn)", 25.5],
  ["COc1cccc(-n2c(SCC(=O)NC3CCS(=O)(=O)C3)nc3ccccc3c2=O)c1 (stereo not drawn)", -0.844]
]}

----------
target: Transient receptor potential cation channel subfamily V member 1 (Homo sapiens); assay: HTS Assay for Compounds that Act as Agonists of the Vanilloid Receptor 1; conditions: TRPV1-expressing cells, Fluo-8 calcium influx, agonist mode; at 8.33 µM
About 620 (0.19%) of roughly 320,000 compounds were called active. About 6% were inconclusive and are not listed. Rule as the data show it: active = activation above about 80%; inconclusive = between about 30% and that limit; inactive = weaker than that. Many of the other results were omitted from the sample, so actives are more common in it than they were.
Outcome codes: class 1 for active, class 0 for inactive

{"columns": ["compound", "tested.target", "assigned.class"],
 "data": [
  ["CC(C)n1ncc2c(C(=O)NCc3ccccc3CN(C)C)cc(C3CC3)nc21", "Transient receptor potential cation channel subfamily V member 1 (Homo sapiens)", "class 0"],
  ["CCC(C)(C)c1ccc(OCC(=O)N(C)C)c(C(C)(C)CC)c1", "Transient receptor potential cation channel subfamily V member 1 (Homo sapiens)", "class 1"],
  ["Cc1cnc(NC(=O)c2ccc(Cl)nc2)s1", "Transient receptor potential cation channel subfamily V member 1 (Homo sapiens)", "class 0"],
  ["N#Cc1ccc(OCC(=O)NC(=O)NC2CCS(=O)(=O)C2)cc1 (stereo not drawn)", "Transient receptor potential cation channel subfamily V member 1 (Homo sapiens)", "class 0"],
  ["Cc1ccc(O)c(CNc2nc3ccccc3n2C)c1", "Transient receptor potential cation channel subfamily V member 1 (Homo sapiens)", "class 0"],
  ["CC(C)(C)C(=O)CSc1ccc(S(=O)(=O)N2CCCC2)cn1", "Transient receptor potential cation channel subfamily V member 1 (Homo sapiens)", "class 0"],
  ["Cc1ccc(C2=NN(C)c3nc4ccccc4n3C2)cc1", "Transient receptor potential cation channel subfamily V member 1 (Homo sapiens)", "class 1"],
  ["Cc1cc(C(=O)COc2ccc(Br)cc2F)c(C)n1C1CC1", "Transient receptor potential cation channel subfamily V member 1 (Homo sapiens)", "class 0"]
]}

----------
molecular target: Transient receptor potential cation channel subfamily V member 1 (Homo sapiens); test: HTS Assay for Compounds that Act as Agonists of the Vanilloid Receptor 1; conditions: TRPV1-expressing cells, Fluo-8 calcium influx, agonist mode; at 8.33 µM; hits give high values
In all, about 320,000 compounds went through this assay and about 620 (0.19%) were called active. Roughly 6% stayed inconclusive and do not appear here. This is one part of a sample in which actives are shown more often than they occur.

{"columns": ["compound", "activation"],
 "data": [
  ["CC(C)CCN1CCC(C)(NC(=O)c2ccccc2)C1=O (configuration not stated)", "-3.6% (inactive)"],
  ["C/C(=N\\NC(=O)c1cccc(N2CCCC2=O)c1)c1ccc(N)cc1", "-0.551% (inactive)"],
  ["O=C(COC(=O)CCCN1C(=O)c2cccc3cccc(c23)C1=O)NC1CCS(=O)(=O)C1 (configuration not stated)", "-0.543% (inactive)"],
  ["CNS(=O)(=O)c1cccc(C(=O)OCCCC(=O)c2ccccc2)c1", "4.36% (inactive)"],
  ["Cc1ccc(C(=O)OCC(=O)Nc2ccc(Cl)cn2)cc1S(=O)(=O)N1CCOCC1", "7.43% (inactive)"],
  ["S=C(NNC(=S)NC1CC2C=CC1C2)NC1CC2C=CC1C2 (configuration not stated)", "1.8% (inactive)"],
  ["CC(C)(C)C(=O)OCc1nc(-c2ccc(O)c(O)c2)cs1", "91.2% (active)"],
  ["CCOC(=O)c1ccccc1NC(=O)COC(=O)C(Cc1c[nH]c2ccccc12)NC(C)=O (configuration not stated)", "17.5% (inactive)"],
  ["Cc1cccc(Nc2nnc(SCC(=O)c3c(N)n(C4CC4)c(=O)[nH]c3=O)s2)c1C", "-1.01% (inactive)"],
  ["COc1ccc(-c2csc(Cc3nc(O)cs3)n2)cc1", "4.2% (inactive)"],
  ["O=C(Nc1cccc2cccnc12)C(F)(F)F", "-6.93% (inactive)"],
  ["CSCCC(NC(=O)c1ccco1)C(=O)NCCc1ccc(F)cc1 (configuration not stated)", "0.184% (inactive)"]
]}

----------
Items are presented alongside their recorded activation.
target: Transient receptor potential cation channel subfamily V member 1 (Homo sapiens) (UniProt Q8NER1); test: HTS Assay for Compounds that Act as Agonists of the Vanilloid Receptor 1; settings: TRPV1-expressing cells, Fluo-8 calcium influx, agonist mode; at 8.33 µM; hits give high values
The campaign covered roughly 320,000 compounds. About 620 (0.19%) were called active. Not shown: some 6% with an inconclusive outcome. Shown is part of a subset that was picked to be rich in actives.
property.measured: activation (%)

{"columns": ["compound", "unit.text", "result.number"],
 "data": [
  ["O=C(NCc1ccccc1CN1CCCC1)c1cccc(S(=O)(=O)Nc2ccc(F)cc2)c1", "%", 2.73],
  ["CN(C)c1ccc(/C=C2\\NC(=S)N(Cc3ccccc3)C2=O)cc1", "%", 82.1],
  ["Cc1ccc(CN2CC(C(=O)N3CCN(S(=O)(=O)c4ccccc4)CC3)CC2=O)cc1 (stereo not given)", "%", 0.927],
  ["Cc1c(/C=N\\NC(=O)c2cc3ccccc3o2)c2ccccc2n1C", "%", -1.62],
  ["CC1(C)O[C@@H]2[C@H](O1)[C@@H](COS(=O)(=O)O)O[C@H]2n1ccc(=O)[nH]c1=O", "%", -5.53]
]}
